- TESTED_ON: T1, recombinant human CD39 (R&D Systems) (human, UniProt P49961 38-478)
- T1 construct: bought; also called CD39 antigen (R&D Systems); ENTPD1
- T1 sequence: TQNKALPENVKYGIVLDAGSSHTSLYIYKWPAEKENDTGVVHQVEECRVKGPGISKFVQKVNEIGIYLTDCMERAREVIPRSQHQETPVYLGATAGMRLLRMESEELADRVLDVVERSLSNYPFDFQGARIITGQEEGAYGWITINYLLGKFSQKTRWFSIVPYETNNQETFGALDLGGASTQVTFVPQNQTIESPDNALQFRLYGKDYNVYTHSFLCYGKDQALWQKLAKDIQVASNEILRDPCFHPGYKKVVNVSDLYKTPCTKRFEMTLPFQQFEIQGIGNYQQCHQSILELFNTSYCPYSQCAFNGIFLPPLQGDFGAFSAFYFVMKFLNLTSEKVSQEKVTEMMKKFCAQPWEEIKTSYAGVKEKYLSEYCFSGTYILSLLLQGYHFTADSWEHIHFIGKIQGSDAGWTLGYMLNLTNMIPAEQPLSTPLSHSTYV
- PROTOCOL_DESCRIPTION: BLI (Octet QK384); antibody on anti-mouse IgG Fc sensor, recombinant human CD39 in solution
MEASURED_METRIC: koff (s⁻¹)

anti-CD39 monoclonal antibody 9-8B (antibody, V domains shown, purified mouse hybridoma antibody, IgG2a isotype; also called R21-9-8B; R29-9-8B) VH: QIQLVQSGPELKKPGETVKISCKASGYTFTHYGMNWVKQAPGKGLKWMGWINTYTGELTYADDFKGRFAFSLETSASTAYLQINNLKNEDTATYFCARRAYYRYDYVMDYWGQGTSVTVSS VL: DIVMTQSQKFMSTSVGDRVSVTCKASHNVGTNVAWYQQKPGQSPKALIYSASYRYSGVPGRFTGSGSGTDFTLTISNVQSEDLAEYFCHQYNNYPYTFGGGTKLEIK: 0.000848
anti-CD39 monoclonal antibody 5-165C (antibody, V domains shown, purified mouse hybridoma antibody, IgG2a isotype; also called R21-5-165C; R29-5-165C) VH: EVQLVESGGDLVKPGGSLKLSCAAFGFTFSRYGMSWVRQTPDKRLEWVATITSGGIYTYYPDSVKGRFTISRDNAKNTLYLQMSSLKSEETAMYYCARHGQFGDYYGMDYWGQGTSVTVSS VL: DVVMTQTPLSLPVSLGDQASISCRSSQSLLHSNGNTYLHWYLQKPGQSPKLLIYKVSNRFSGVPDRFSGSGSGTDFTLKISRVEAEDLGVYFCSQSTHVPYTFGGGTKLEIK: 0.000196
anti-CD39 monoclonal antibody 5-71A (antibody, V domains shown, purified mouse hybridoma antibody, IgG2a isotype; also called R21-5-71A; R29-5-71A) VH: DVQLVESGGGLVQPGGSRKLSCAASGFTFSSFGMHWVRQAPEKGLELVAYISSGSTIRYYSDTVKGRFTISRDNPKNTLFLQMTSLRSEDTAMYYCARFLYEGFRYGMDYWGQGTSVTVSS VL: DVLMTQTPLSLPVSLGDQASISCRSSQSIVHSNGNTYLEWYLQKPGQSPKLLIYKVSNRFSGVPDRFSGSGSGTDFTLKISRVEAEDLGIYYCFQGSHVPNTFGGGTKLEIK: 5.22e-05
